Source listed as ChEMBL document CHEMBL1156792.

target.system: Dipeptidyl peptidase 4 (Homo sapiens, UniProt P27487)
Sequence (P27487 whole entry): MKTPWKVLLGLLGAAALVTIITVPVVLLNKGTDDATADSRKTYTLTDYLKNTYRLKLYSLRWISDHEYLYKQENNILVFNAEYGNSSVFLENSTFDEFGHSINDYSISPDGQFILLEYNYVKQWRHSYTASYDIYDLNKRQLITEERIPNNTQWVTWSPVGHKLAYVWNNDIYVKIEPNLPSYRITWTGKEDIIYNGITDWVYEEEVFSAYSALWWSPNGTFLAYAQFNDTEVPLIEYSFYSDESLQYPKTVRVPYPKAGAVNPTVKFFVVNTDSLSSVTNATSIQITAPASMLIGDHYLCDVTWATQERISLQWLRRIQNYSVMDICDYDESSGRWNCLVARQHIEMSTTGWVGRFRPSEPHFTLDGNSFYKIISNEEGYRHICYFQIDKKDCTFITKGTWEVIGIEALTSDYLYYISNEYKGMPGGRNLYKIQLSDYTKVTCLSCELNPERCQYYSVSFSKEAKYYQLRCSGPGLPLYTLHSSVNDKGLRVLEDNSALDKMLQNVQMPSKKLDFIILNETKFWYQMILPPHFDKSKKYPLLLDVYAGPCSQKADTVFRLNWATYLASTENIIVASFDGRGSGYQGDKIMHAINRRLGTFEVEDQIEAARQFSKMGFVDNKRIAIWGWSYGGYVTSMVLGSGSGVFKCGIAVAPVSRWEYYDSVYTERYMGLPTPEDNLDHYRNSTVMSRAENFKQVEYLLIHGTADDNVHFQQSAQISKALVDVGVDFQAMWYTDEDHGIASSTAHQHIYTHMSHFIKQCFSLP
assay.notes: Inhibition of human DPP4 from human Caco-2 cells
Assay type: cell-based
property.name: IC50 (nM)

• Nc1ncnc2c1ncn2[C@@H]1O[C@H](CO)[C@@H](O)[C@@H]1O [VIDARABINE] = 62

* * *

assay.notes: Solubility in water
Assay type: physicochemical
Peptide text beside a SMILES is read from it. * marks the point of attachment. X2 = OC[C@H]1O[C@@H](n2cnc3c(N*)ncnc32)[C@@H](O)[C@@H]1O
property.name: solubility (mg/mL)

- CC(C)[C@H](N)C(=O)N1CCC[C@H]1C(=O)Nc1ccc2ncccc2c1: 33.2
- Nc1ccc2ncccc2c1: 7.01
- CC(C)[C@H](N)C(=O)N1CCC[C@H]1C(=O)N[C@H](C(=O)N1CCC[C@H]1C(=O)Nc1ncnc2c1ncn2[C@@H]1O[C@H](CO)[C@@H](O)[C@@H]1O)C(C)C (H-VPVP-X2): 34.7
- N[C@@H](CC(=O)O)C(=O)N1CCC[C@H]1C(=O)Nc1ccc2ncccc2c1: 47.8

* * *

Tested on: Human alphaherpesvirus 1
assay.notes: Antiviral activity against HSV1 KOS infected in HEL cells assessed as inhibition of virus-induced cytopathicity in presence of vildagliptin
Type: functional, organism-based
condition.parameters: Human alphaherpesvirus 1, KOS
pEC50: −log10 of the molar value. Peptide text beside a SMILES is read from it. * marks the point of attachment. X2 = OC[C@H]1O[C@@H](n2cnc3c(N*)ncnc32)[C@@H](O)[C@@H]1O
property.name: pEC50

• CC(C)[C@H](N)C(=O)N1CCC[C@H]1C(=O)N[C@H](C(=O)N1CCC[C@H]1C(=O)Nc1ncnc2c1ncn2[C@@H]1O[C@H](CO)[C@@H](O)[C@@H]1O)C(C)C (H-VPVP-X2) = 3.62
• Nc1ncnc2c1ncn2[C@@H]1O[C@H](CO)[C@@H](O)[C@@H]1O = 4.38

* * *

Catalogue of IC50 values
System: CCRF-CEM
assay.notes: Cytotoxicity against human CEM cells assessed as inhibition of cell proliferation after 48 hrs
Assay type: functional, cell-based
Peptide text beside a SMILES is read from it. * marks the point of attachment. X1 = O=c1nc(N*)ccn1[C@@H]1O[C@H](CO)[C@@H](O)[C@@H]1O
property.name: IC50

- CC(C)[C@H](N)C(=O)N1CCC[C@H]1C(=O)N[C@H](C(=O)N1CCC[C@H]1C(=O)Nc1ccn([C@@H]2O[C@H](CO)[C@@H](O)[C@@H]2O)c(=O)n1)C(C)C (H-VPVP-X1): 57 nM
- CC(C)[C@H](N)C(=O)N[C@@H](C)C(=O)N[C@H](C(=O)N1CCC[C@H]1C(=O)Nc1ccn([C@@H]2O[C@H](CO)[C@@H](O)[C@@H]2O)c(=O)n1)C(C)C (H-VAVP-X1): 50 nM
